tgt: T1, DR4G107 (HLA DPB4:01, peptide CLIP) (human)
T1 construct: extracellular domain
test details: MSD ECL; antigen coated; protocol of Example 3;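 also: antibody binding to plate-coated soluble HLA class II antigens carrying peptides fused at the beta-chain N-terminus, detected with a SulfoTag anti-human Kappa secondary antibody for 1 hour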
# reported ECL signal; entries follow
Report the figure in ECL without appending any unit label.

Answered examples (2):
{"columns": ["binder", "unit abbreviation", "obs value"],
 "data": [
  ["DR4B5 (antibody, V domains shown, also called apolizumab (1D10) re-engineered as IgG2sigma) VH: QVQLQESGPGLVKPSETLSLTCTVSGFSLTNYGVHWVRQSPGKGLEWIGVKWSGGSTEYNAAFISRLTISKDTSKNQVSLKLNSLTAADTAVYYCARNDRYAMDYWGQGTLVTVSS VL: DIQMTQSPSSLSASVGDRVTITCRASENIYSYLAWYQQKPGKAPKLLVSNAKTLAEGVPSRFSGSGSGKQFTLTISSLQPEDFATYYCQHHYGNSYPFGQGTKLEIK", "ECL", 100],
  ["DR4B127 (antibody, human IgG2, kappa, V domains shown, also called VH DR4H7 / VL PH9L3) VH: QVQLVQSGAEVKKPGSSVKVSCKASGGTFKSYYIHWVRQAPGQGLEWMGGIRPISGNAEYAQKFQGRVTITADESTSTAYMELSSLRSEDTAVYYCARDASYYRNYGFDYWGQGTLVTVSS VL: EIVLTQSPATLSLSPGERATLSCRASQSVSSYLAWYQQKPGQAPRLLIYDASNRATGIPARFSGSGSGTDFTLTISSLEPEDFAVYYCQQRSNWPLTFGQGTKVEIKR", "ECL", 307]
]}

Summary for this binder, DR4B4 (antibody, V domains shown, also called Lym-1 re-engineered as IgG2sigma) VH: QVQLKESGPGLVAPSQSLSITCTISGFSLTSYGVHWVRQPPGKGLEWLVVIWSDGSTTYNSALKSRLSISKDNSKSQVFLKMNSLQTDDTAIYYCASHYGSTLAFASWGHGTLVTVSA VL: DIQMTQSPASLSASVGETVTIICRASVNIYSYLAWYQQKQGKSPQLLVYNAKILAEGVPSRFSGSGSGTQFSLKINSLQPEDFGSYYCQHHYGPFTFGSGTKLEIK : ECL signal is 65

# ECL signal (binder: DR4B6 (antibody, V domains shown, also called L243 re-engineered as IgG2sigma) VH: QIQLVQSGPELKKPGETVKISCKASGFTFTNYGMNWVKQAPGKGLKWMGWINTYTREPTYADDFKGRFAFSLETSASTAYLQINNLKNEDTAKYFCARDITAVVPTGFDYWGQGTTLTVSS VL: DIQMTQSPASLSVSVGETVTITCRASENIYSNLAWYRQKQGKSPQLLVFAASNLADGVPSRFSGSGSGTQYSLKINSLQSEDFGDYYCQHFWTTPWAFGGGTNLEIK ) is 133

// ECL signal lookup, binder = DR4B98 (antibody, human IgG2, kappa, V domains shown, also called VH DR4H50 / VL PH9L3) VH: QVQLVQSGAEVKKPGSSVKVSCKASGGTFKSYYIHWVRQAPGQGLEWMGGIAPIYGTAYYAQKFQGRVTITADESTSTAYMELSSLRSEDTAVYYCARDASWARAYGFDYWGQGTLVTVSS VL: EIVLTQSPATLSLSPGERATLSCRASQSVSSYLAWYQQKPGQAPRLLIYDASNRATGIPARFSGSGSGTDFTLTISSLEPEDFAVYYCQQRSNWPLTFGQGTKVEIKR , result: 328
